# procedure-summary: pH profile of enzymes on 1 mM ATP
# Type: biochemical
# cond: 50 mM trisodium citrate/citric acid, 5 mM CaCl2, relative to the highest value
experimental-readout: Relative activity on ATP, pH 6.5
API note: the answer field is a bare number with no unit suffix.

Let me know recorded Relative activity on ATP, pH 6.5 for CRC25085: Acid phosphatase (Class A), accession WP_092747651.1, SEQ ID NO:21 (protein, listed as Acinetobacter boissieri) LEQSNSFLQLAQVPDSLAIVPAPPAYNSVDFLRDKAAYDQAKSLVGTERWKVAAEDADLSDANIGKPFSQALGIEISPQNTPITYEILRKLRTDAGNYATKAAKEHYMRLRPFMFFNSHTCTPNDEANLSKNGAYPSGHTTIGWSSALVLAEIRPERQNEILQRGYEYGQSRVICGVHWQSDVDAGRITGSAIVARLHADKAFTKMLEEAKQEIQRKTK , thanks.
0.9
